- study.system: endothelin receptor A (ETA) (Sus scrofa)
- Construct: A membrane fraction prepared from the porcine heart; from tissue; host or cells: porcine heart membrane fraction
- Sequence (Q29010 21-427): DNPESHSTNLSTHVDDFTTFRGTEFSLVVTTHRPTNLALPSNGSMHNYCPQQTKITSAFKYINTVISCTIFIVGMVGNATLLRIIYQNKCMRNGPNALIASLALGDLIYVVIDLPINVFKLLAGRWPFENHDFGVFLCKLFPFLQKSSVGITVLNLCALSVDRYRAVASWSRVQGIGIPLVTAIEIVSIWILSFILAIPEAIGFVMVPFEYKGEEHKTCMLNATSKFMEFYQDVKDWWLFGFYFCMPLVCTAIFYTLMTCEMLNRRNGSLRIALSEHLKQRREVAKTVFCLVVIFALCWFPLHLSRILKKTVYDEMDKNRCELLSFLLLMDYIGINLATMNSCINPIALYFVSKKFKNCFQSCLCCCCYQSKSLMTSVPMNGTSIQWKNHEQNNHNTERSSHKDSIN
- experiment.summary: Assay of affinity for receptor (1): binding activity on ETA receptor, 125I-labeled endothelin-1, porcine heart membrane fraction
- Design: key: relative specific activity; reference cyclic pentapeptide ETA binding = 1.0
- condition.parameters: specific activity, taking the binding activity of control cyclo[-D-Glu-Ala-D-aIle-Leu-D-Trp-] on receptor A as 1.0, 25°C, 1 hour
- Experimental: Assay of Affinity for Receptor (1) ... Binding Activity on ETA Receptor A membrane fraction prepared from the porcine heart was diluted to 0.15 mg/ml by using a buffer solution for assay, and 100 µl of the resulting suspension of the membrane fraction was poured into each assay tube to use for assay. To this suspension of the membrane fraction was added 2 µl of 5 nM ^125I-labeled endothelin-1 solution. […]
Non-standard residues stand in square brackets, D forms with d. Residues, ends and D or L forms follow the SMILES beside them. *: point of attachment. 1Nal = N[C@@H](Cc1cccc2ccccc12)C(=O)O; d2Thi = N[C@H](Cc1cccs1)C(=O)O; Pip = O=C(O)[C@@H]1CCCCN1; Orn = NCCC[C@H](N)C(=O)O; PhAc = O=C(Cc1ccccc1)*; Sar = CNCC(=O)O
parameter.measured: Binding Activity on ET Receptor (R. act.) ETA
Reply with the value as a number alone.

Solved entries (count: 2):
- compound: "CC(C)C[C@@H]1NC(=O)[C@@H](CC(C)C)NC(=O)[C@H](CC(=O)O)NC(=O)[C@@H]2CCCCN2C(=O)[C@@H](CC(=O)O)NC(=O)[C@@H](Cc2c[nH]c3ccccc23)NC1=O [Example 26, Cyclo[-D-Asp-Pip-Asp-D-Leu-Leu-D-Trp-]] (cyclo(D[dL]L[dW][dD][Pip]))"
  study.system: "endothelin receptor A (ETA) (Sus scrofa)"
  numeric.value: 25
- compound: "CC(C)C[C@@H]1NC(=O)[C@@H](CC(C)C)NC(=O)[C@H](CC(=O)O)NC(=O)CN(C)C(=O)[C@@H](CC(=O)O)NC(=O)[C@@H](Cc2c[nH]c3ccccc23)NC1=O [Example 46, Cyclo[-D-Asp-Sar-Asp-D-Leu-Leu-D-Trp-]] (cyclo(D[dL]L[dW][dD][Sar]))"
  study.system: "endothelin receptor A (ETA) (Sus scrofa)"
  numeric.value: 8.1

Read off the recorded Binding Activity on ET Receptor (R. act.) ETA for CC(C)C[C@@H]1NC(=O)[C@@H](CC(C)C)NC(=O)[C@@H](C)NC(=O)[C@H](CC(=O)O)NC(=O)[C@@H](CC(=O)O)NC(=O)[C@@H](Cc2c[nH]c3ccccc23)NC1=O [Example 29, Cyclo[-D-Asp-Asp-D-Ala-D-Leu-Leu-D-Trp-]] (cyclo(D[dA][dL]L[dW][dD]))
2.6

Read off the recorded Binding Activity on ET Receptor (R. act.) ETA for CC(C)C[C@@H]1NC(=O)[C@@H](Cc2cccs2)NC(=O)[C@H](CC(=O)O)NC(=O)[C@H](Cc2c[nH]c3ccccc23)NC(=O)[C@@H](CC(=O)O)NC(=O)[C@@H](Cc2c[nH]c3ccccc23)NC1=O [Example 50, Cyclo[-D-Asp-Trp-Asp-D-Thi-Leu-D-Trp-]] (cyclo(D[d2Thi]L[dW][dD]W))
4

Give Binding Activity on ET Receptor (R. act.) ETA for the following compound: CC(C)C[C@@H]1NC(=O)[C@@H](CC(C)C)NC(=O)[C@H](CC(=O)O)NC(=O)[C@H](Cc2ccccc2)NC(=O)[C@@H](CC(=O)O)NC(=O)[C@@H](Cc2c[nH]c3ccccc23)NC1=O [Example 19, Cyclo[-D-Asp-Phe-Asp-D-Leu-Leu-D-Trp-]] (cyclo(D[dL]L[dW][dD]F))
8.3

Read the entry CC(C)C[C@@H]1NC(=O)[C@@H](CC(C)C)NC(=O)[C@H](CC(=O)O)NC(=O)[C@H](Cc2cccc3ccccc23)NC(=O)[C@@H](CC(=O)O)NC(=O)[C@@H](Cc2c[nH]c3ccccc23)NC1=O [Example 23] (cyclo([1Nal]D[dL]L[dW][dD])) and write its reported Binding Activity on ET Receptor (R. act.) ETA.
8.3

Identify measured Binding Activity on ET Receptor (R. act.) ETA associated with CC(C)C[C@@H]1NC(=O)[C@@H](CC(C)C)NC(=O)[C@H](CC(=O)O)NC(=O)[C@H](CCCNC(=O)Cc2ccccc2)NC(=O)[C@@H](CC(=O)O)NC(=O)[C@@H](Cc2c[nH]c3ccccc23)NC1=O [Example 80] (cyclo(D[dL]L[dW][dD][Orn](PhAc)))
260

====

- Test system: ETB
- experiment.summary: ETB radio receptor assay *2, 125I-endothelin-1, guinea pig kidney crude membrane fraction
- Format: binding, Guinea pigs
- condition.parameters: relative activity, 37 °C, 90 minutes
Non-standard residues stand in square brackets, D forms with d. Residues, ends and D or L forms follow the SMILES beside them. *: point of attachment. X3 = O=C(Cc1c[nH]c2ccccc12)*; Orn = NCCC[C@H](N)C(=O)O; Sar = CNCC(=O)O
condition met means recorded Binding Activity on ET Receptor (R. act.) ETB*2 is 40 or above; condition not met means it is below 40.

- molecule: "CC(C)C[C@@H]1NC(=O)[C@@H](CC(C)C)NC(=O)[C@H](CC(=O)O)NC(=O)CN(C)C(=O)[C@@H](CC(=O)O)NC(=O)[C@@H](Cc2c[nH]c3ccccc23)NC1=O [Example 46, Cyclo[-D-Asp-Sar-Asp-D-Leu-Leu-D-Trp-]] (cyclo(D[dL]L[dW][dD][Sar]))"
  group.label: "condition met"
- molecule: "CC(C)C[C@@H]1NC(=O)[C@@H](CC(C)C)NC(=O)[C@H](CC(=O)O)NC(=O)[C@@H]2CCCN2C(=O)[C@@H](CC(=O)O)NC(=O)[C@@H](Cc2c[nH]c3ccccc23)NC1=O [Example 9, cyclo[-D-Asp-Pro-Asp-D-Leu-Leu-D-Trp-]] (cyclo(D[dL]L[dW][dD]P))"
  group.label: "condition met"

Binding Activity on ET Receptor (R. act.) ETB*2 >= 40 for CC(C)C[C@@H]1NC(=O)[C@@H](CC(C)C)NC(=O)[C@@H]2CCCN2C(=O)[C@H](CC(=O)O)NC(=O)[C@@H](CC(=O)O)NC(=O)[C@@H](Cc2c[nH]c3ccccc23)NC1=O [Example 30, Cyclo[-D-Asp-Asp-Pro-D-Leu-Leu-D-Trp-]] (cyclo(DP[dL]L[dW][dD])) ?
condition not met

Evaluate CC(C)C[C@@H]1NC(=O)[C@@H](CC(C)C)NC(=O)[C@H](CO)NC(=O)[C@H](Cc2c[nH]c3ccccc23)NC(=O)[C@@H](CC(=O)O)NC(=O)[C@@H](Cc2c[nH]c3ccccc23)NC1=O [Example 37, Cyclo[-D-Asp-Trp-Ser-D-Leu-Leu-D-Trp-]] (cyclo(L[dW][dD]WS[dL])) : Binding Activity on ET Receptor (R. act.) ETB*2 at minimum 40?
condition not met

Given the entry CC(C)C[C@@H]1NC(=O)[C@@H](CC(C)C)NC(=O)[C@H](CC(=O)O)NC(=O)[C@H](CCCNC(=O)Cc2c[nH]c3ccccc23)NC(=O)[C@@H](CC(=O)O)NC(=O)[C@@H](Cc2c[nH]c3ccccc23)NC1=O [Example 82] (cyclo(D[dL]L[dW][dD][Orn](X3))) , answer whether its Binding Activity on ET Receptor (R. act.) ETB*2 meets or surpasses 40.
condition met

Assess whether reported Binding Activity on ET Receptor (R. act.) ETB*2 for CC(C)C[C@@H]1NC(=O)[C@@H](C(C)C)NC(=O)[C@H](CC(=O)O)NC(=O)[C@H](Cc2c[nH]c3ccccc23)NC(=O)[C@@H](CC(=O)O)NC(=O)[C@@H](Cc2c[nH]c3ccccc23)NC1=O [Example 52, Cyclo[-D-Asp-Trp-Asp-D-Val-Leu-D-Trp-]] (cyclo(D[dV]L[dW][dD]W)) sits at 40 or higher.
condition met

====

- study.system: endothelin receptor A (ETA) (Sus scrofa)
- Construct: A membrane fraction prepared from the porcine heart; from tissue; host or cells: porcine heart membrane fraction
- experiment.summary: Assay of affinity for receptor (1): binding activity on ETA receptor, 125I-labeled endothelin-1, porcine heart membrane fraction
- Design: key: relative specific activity; reference cyclic pentapeptide ETA binding = 1.0
- condition.parameters: specific activity, taking the binding activity of control cyclo[-D-Glu-Ala-D-aIle-Leu-D-Trp-] on receptor A as 1.0, 25°C, 1 hour
Non-standard residues stand in square brackets, D forms with d. Residues, ends and D or L forms follow the SMILES beside them. *: point of attachment. Bn = c1ccc(C*)cc1
Friendly reminder: Binding Activity on ET Receptor (R. act.) ETA below 4 is Y, at or above is N.

- compound: "CC(C)C[C@@H]1NC(=O)[C@@H](CC(C)C)NC(=O)[C@H](CCC(=O)O)NC(=O)[C@H](Cc2c[nH]c3ccccc23)NC(=O)[C@@H](CC(=O)O)NC(=O)[C@@H](Cc2c[nH]c3ccccc23)NC1=O [Example 34, Cyclo[-D-Asp-Trp-Glu-D-Leu-Leu-D-Trp-]] (cyclo(E[dL]L[dW][dD]W))"
  group.label: "N"
- compound: "CC(C)C[C@@H]1NC(=O)[C@H](Cc2c[nH]c3ccccc23)NC(=O)[C@@H](CC(=O)O)NC(=O)[C@@H](Cc2c[nH]c3ccccc23)NC(=O)[C@H](CC(C)C)NC(=O)[C@@H](CC(C)C)NC1=O [Example 35, Cyclo[-D-Asp-Trp-Leu-D-Leu-Leu-D-Trp-]] (cyclo(L[dL]L[dW][dD]W))"
  group.label: "N"
- compound: "CC(C)C[C@@H]1NC(=O)[C@@H](C(C)C)NC(=O)[C@H](CC(=O)O)NC(=O)[C@H](Cc2c[nH]c3ccccc23)NC(=O)[C@@H](CC(=O)O)NC(=O)[C@@H](Cc2c[nH]c3ccccc23)NC1=O [Example 52, Cyclo[-D-Asp-Trp-Asp-D-Val-Leu-D-Trp-]] (cyclo(D[dV]L[dW][dD]W))"
  group.label: "N"
- compound: "CC(C)C[C@@H]1NC(=O)[C@@H](CC(C)C)NC(=O)[C@H](COCc2ccccc2)NC(=O)[C@H](Cc2c[nH]c3ccccc23)NC(=O)[C@@H](CC(=O)O)NC(=O)[C@@H](Cc2c[nH]c3ccccc23)NC1=O [Example 38] (cyclo(L[dW][dD]WS(Bn)[dL]))"
  group.label: "N"

Is it true that Binding Activity on ET Receptor (R. act.) ETA reported for CC(C)C[C@@H]1NC(=O)[C@@H](CC(C)C)NC(=O)[C@H]2CCCN2C(=O)[C@H](CC(=O)O)NC(=O)[C@@H](CC(=O)O)NC(=O)[C@@H](Cc2c[nH]c3ccccc23)NC1=O [Example 31, Cyclo[-D-Asp-Asp-D-Pro-D-Leu-Leu-D-Trp-]] (cyclo(D[dP][dL]L[dW][dD])) is less than 4?
Y

Does the reported Binding Activity on ET Receptor (R. act.) ETA of CC(C)C[C@@H]1NC(=O)[C@@H](CC(C)C)NC(=O)[C@H](C)NC(=O)CNC(=O)[C@@H](CC(=O)O)NC(=O)[C@@H](Cc2c[nH]c3ccccc23)NC1=O [Example 5, cyclo[-D-Asp-Gly-Ala-D-Leu-Leu-D-Trp-]] (cyclo(A[dL]L[dW][dD]G)) stay below 4?
Y
